- System: MDA-MB-231
- Protocol summary: NCI tumour cell line growth inhibition, 48 h
Calls of active or inactive are those of the source. Cut-off read from the data, not from the text of the source: active = GI50 up to about 1.1 µM and inactive = higher. Where a SMILES comes first, the peptide text is derived from it. Peptide text beside a SMILES is read from it. [ ]: non-standard residue; d: D form. The star is where a group is joined. * marks the point of attachment. Bn2Val = CC(C)[C@@H](C(=O)*)N(Cc1ccccc1)Cc1ccccc1; NH(4-F-benzyl) = Fc1ccc(CN*)cc1; NMeV = CN[C@H](C(=O)O)C(C)C; dNMeA = CN[C@H](C)C(=O)O; Boc = CC(C)(C)OC(=O)*
For each record, write down the corresponding GI50.

State the recorded GI50 for this entry: CSCCC(NC(=O)C(CC(C)C)NC(=O)CNC(=O)OC(C)(C)C)C(=O)N(C)C (stereo not drawn) (Boc-Gly-Leu-Met-NMe2; configuration not given here) > 100 µM (inactive)

Which GI50 reading was recorded for the compound O=P(O)(O)OP(=O)(O)O ? > 100 µM (inactive)

I have this compound here, CC(C)[C@H](NC(=O)[C@H](C(C)C)N(Cc1ccccc1)Cc1ccccc1)C(=O)N(C)[C@H](C(=O)N1CCC[C@H]1C(=O)N(C)[C@H](C)C(=O)NCc1ccc(F)cc1)C(C)C (Bn2Val-V[NMeV]P[dNMeA]-{NH(4-F-benzyl)}) , and I need its recorded GI50. 3.55 µM (inactive)

====

- Tested on: HOP-92
- Protocol summary: NCI tumour cell line growth inhibition, 48 h
Active and inactive are the calls of the source. Cut-off read from the data, not from the text of the source: active = GI50 up to about 1.1 µM and inactive = higher. Where a SMILES comes first, the peptide text is derived from it. The star is where a group is joined. Boc = CC(C)(C)OC(=O)*
Could you please pick one outcome from this set? active, inactive

Give the logged outcome of this assay for the following compound: Cc1ccc(N(C(=O)CC(=O)N2N=C(c3ccccc3)C(/N=N/c3ccc([N+](=O)[O-])cc3)C2=O)C(=O)c2ccc(Cl)cc2)cc1 (stereo not drawn) inactive

# lookup: test call for CCOC(=O)c1c(N2CCCC2)[nH]c(=O)c(C(c2ccc(Cl)c([N+](=O)[O-])c2)c2c(O)c(C(=O)OCC)c(N3CCCC3)[nH]c2=O)c1O inactive

Would you mind telling me which call this test gave CCOC(=O)C[C@@H]1C2(C=C[C@@]13CO3)OCC(C)(C)CO2 ? inactive

Fill in: this test's call for COC(=O)CNC(=O)C(Cc1ccccc1)NC(=O)C(CCSC)NC(=O)C(Cc1ccc(O)cc1)NC(=O)OC(C)(C)C (stereo not drawn) (Boc-YMFG-OMe; configuration not given here) is ___ inactive

Per the assay record, what outcome was assigned to O=C(O)c1ccc(Nc2ccnc3cc(Cl)ccc23)cc1O ? inactive

State the result this test recorded for CCN(CC)CCN1C(=O)c2c(c(-c3ccccc3)c3ccccc3c2-c2ccccc2)C1=O . inactive

Identify the outcome logged in this assay for the compound shown: COC(=O)n1c(C[P+](c2ccccc2)(c2ccccc2)c2ccccc2)cc2ccccc21 active

Field: outcome | Entry: COc1cc(/C=C/C2=C(C#N)C(=O)OC2(C)C)ccc1O inactive

====

- System: OVCAR-3
- Protocol summary: NCI tumour cell line growth inhibition, 48 h
The source made the active and inactive calls. Rule as the data show it: active = GI50 up to about 1.1 µM and inactive = higher. Peptide text beside a SMILES is read from it.
Provide the reported GI50 of each item.

Any idea what its GI50 is? The compound is CC1OC(OC2C(CO)OC(O[C@H]3CC[C@@]4(C)C(=CC[C@H]5[C@@H]6C[C@@H]7O[C@](O)(CC[C@H](C)COC8OC(CO)C(O)C(O)C8O)[C@@H](C)[C@@H]7[C@@]6(C)CC[C@@H]54)C3)C(OC3OC(C)C(O)C(O)C3O)C2O)C(O)C(O)C1O (stereo partly specified) 8.2 µM (inactive)

What GI50 value was documented for this compound, CC(C)(C)OC(=O)NC(CO)c1cccc(OCc2ccccc2)c1 (stereo unspecified) ? > 100 µM (inactive)

Looking for the measured GI50 of C=C(C)[C@H]1CC(=O)/C(C)=C\CC/C(C)=C/CC[C@@]2(C)O[C@@H]2C1 , can you help? 17 µM (inactive)

// GI50 lookup, key: O=C(CCC1CCCCN1)Nc1ccc2c(c1)C(=O)c1ccc(NC(=O)CCN3CCCCC3)cc1C2=O (stereo unspecified) 2.37 µM (inactive)

Name the reported GI50 value associated with the compound O=C(c1ccccc1)N1CCc2c([nH]c3ccccc23)C1 38 µM (inactive)

Record request: GI50 value, item Cc1cn(C2CC(n3cncn3)C(C(C)O)O2)c(=O)[nH]c1=O (stereo unspecified) > 100 µM (inactive)

Can you look up the measured GI50 of O=C(O)CC1OCC=C2CN3CCC45C6=CC(=O)C(O)=C([N+](=O)[O-])C6=NC4C1C2CC35 (stereo unspecified) for me? > 100 µM (inactive)

Which measured GI50 value corresponds to O=C(O)c1cccc(S(=O)(=O)NN2C(=O)CSC2c2ccccc2)c1 (stereo unspecified) ? > 100 µM (inactive)

GET /values?readout=GI50&item= CCOC(=O)c1c(-c2ccccc2)c(C)cn1C > 10 µM (inactive)

What does the data say about its GI50? Entry: COc1cccc(CCCNC(=O)Cc2ccccc2CO)c1 > 100 µM (inactive)

Form field: reported GI50 of O=[N+]([O-])c1cccc(/C=N/NC2=CS(=O)(=O)C=C2)c1 > 100 µM (inactive)

Given the entry CC(=O)NC(CS)C(=O)NC(CO)C(=O)NC(CO)C(=O)NC(Cc1c[nH]c2ccccc12)C(=O)N1CCCC1C(=O)NC(CO)C(=O)NC(Cc1c[nH]c2ccccc12)C(=O)NC(Cc1c[nH]cn1)C(=O)NC(CO)C(=O)NC(Cc1c[nH]c2ccccc12)C(=O)NCC(=O)NCC(=O)NC(C)C(=O)NC(CCC(N)=O)C(=O)NC(CCCCN)C(=O)NC(C)C(=O)NC(CCCNC(=N)N)C(=O)NC(CCCCN)C(N)=O (stereo unspecified) (Ac-CSSWPSWHSWGGAQKARK-NH2; configuration not given here) , report its measured GI50. > 50 µM (inactive)

Find the recorded GI50 belonging to CCCNC(/C=C/[Si](C)(C)C)CO.CCCNCC(O)/C=C/[Si](C)(C)C (stereo unspecified) and report it. > 100 µM (inactive)

Which GI50 reading was recorded for the compound Cc1ccc(-c2nnc(-c3nn(-c4ccccc4)c4nc5ccccc5nc34)o2)cc1 ? 14.1 µM (inactive)

Would you mind telling me what GI50 value was observed for CC(=O)OC1CN2CCC1CC2 (stereo unspecified) ? > 100 µM (inactive)

# GI50 lookup, item COc1ccc2c(c1)C1=NCCN(C)c3ccc([N+](=O)[O-])c(c31)N2 1.36 µM (inactive)

Where these numbers come from: ChEMBL document CHEMBL1201862
